Source of measurements: the RNAGym collection of RNA variant scans (doi:10.1073/pnas.2313332121)

B1: TPR 5TU (parent)
chain: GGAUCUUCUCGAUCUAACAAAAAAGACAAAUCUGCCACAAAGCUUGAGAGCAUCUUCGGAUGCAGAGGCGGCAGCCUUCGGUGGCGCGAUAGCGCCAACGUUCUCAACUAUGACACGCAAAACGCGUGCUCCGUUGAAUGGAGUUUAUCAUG

variants of: B1; test: polymerase ribozyme fitness, log enrichment relative to wild type (log ratio); higher = more active; in vitro selection for triplet polymerase activity
Variants at the floor of the assay were thinned out.
Value type: polymerase ribozyme fitness (log ratio)
Just the number, please, no unit after it.

What value of polymerase ribozyme fitness (log ratio) has been recorded for this entry: U4A G92A G141A -3.96

Look up polymerase ribozyme fitness (log ratio) for this variant: C87U C118U -0.642

Param item = U6C C57U G83U G84U A121U ; retrieve measured polymerase ribozyme fitness (log ratio). -3.18

Please look up its polymerase ribozyme fitness (log ratio): U15C A41G U61G C99U -2.24

# input variant: G126A A138C ; wanted: its polymerase ribozyme fitness (log ratio) -3.73

Recorded polymerase ribozyme fitness (log ratio) of U82A C118U , please. -0.0134

Which polymerase ribozyme fitness (log ratio) value is on record for G84U C95U G143C ? -3.33

I'd like to know its polymerase ribozyme fitness (log ratio). The variant in question is C96U A122G -0.14

Entry C14A C116G : reported polymerase ribozyme fitness (log ratio) = ? -0.826

Would you mind telling me what polymerase ribozyme fitness (log ratio) value was observed for A41C G50A G86A A98G ? -3.62

Which measured polymerase ribozyme fitness (log ratio) value corresponds to A41C C57A C99G U104C G126C U144G ? -3.09

Please report the recorded polymerase ribozyme fitness (log ratio) for G58U C76A . 0.0806

Give the measured polymerase ribozyme fitness (log ratio) of A19G G86A . -1.36

# lookup: polymerase ribozyme fitness (log ratio) of A37C C96U -1.09

Using the record for C38A C95A U135A , report its polymerase ribozyme fitness (log ratio). -1.76

Look up polymerase ribozyme fitness (log ratio): A20U A137C -3.99

Any idea what its polymerase ribozyme fitness (log ratio) is? The variant is C72U A98G U134C -0.362

Which polymerase ribozyme fitness (log ratio) value is on record for A121C ? 0.117

Give its polymerase ribozyme fitness (log ratio) value. Item: A23G U144G -1.79

Reported polymerase ribozyme fitness (log ratio), variant G83A G141C : ____ -1.87

Fill blank: measured polymerase ribozyme fitness (log ratio) of the variant C8A C14G is ____. -3.51

polymerase ribozyme fitness (log ratio) for A73G U101C ? 0.659

Which polymerase ribozyme fitness (log ratio) reading was recorded for the variant U56A C95A ? -0.487

Entry A3U G59C has what polymerase ribozyme fitness (log ratio)? -0.00695

Report polymerase ribozyme fitness (log ratio) for U33A U145C please. -4

Would you kindly share the measured polymerase ribozyme fitness (log ratio) for C14G U139G U144G ? -1.38

Which value of polymerase ribozyme fitness (log ratio) has been reported for G136C U146C in the records? -2.93

Item under review: A64G . Reported polymerase ribozyme fitness (log ratio)? -2.27

So what's the measured polymerase ribozyme fitness (log ratio) for this one? A16C A89G -2.25

// lookup polymerase ribozyme fitness (log ratio) for A47U G83C A142G -2.42

What value of polymerase ribozyme fitness (log ratio) has been recorded for this entry: C69G C96U C103A -3.44

# lookup: polymerase ribozyme fitness (log ratio) of U4A A24U U31G C54U G84A -1.15

Recorded polymerase ribozyme fitness (log ratio) of C87G C93A , please. -3.63

What does the data say about its polymerase ribozyme fitness (log ratio)? Entry: C51U G58A G124C -1.29

What value of measured polymerase ribozyme fitness (log ratio) is listed for A3G U15C C93G U146G ? -2.23

I am curious: what polymerase ribozyme fitness (log ratio) value has been reported for A16C C85G ? -4.13

Quick one: polymerase ribozyme fitness (log ratio) of G58A G84A U104G G126U ? -0.778

Requested read-out: polymerase ribozyme fitness (log ratio). Entry: U53A C75U G84C -2.82

Any idea what its polymerase ribozyme fitness (log ratio) is? The variant is U82G G84C -4.06

Can you look up the measured polymerase ribozyme fitness (log ratio) of A49C C99U U102G for me? -0.308

Please report the recorded polymerase ribozyme fitness (log ratio) for G94C G124U G143U . -3.6

Entry C35A C57U C85U C118U G128A G152U has what polymerase ribozyme fitness (log ratio)? -3.96

Consider the variant C10G C18G U55C C57U U61A and give its measured polymerase ribozyme fitness (log ratio). -4.15

Name the reported polymerase ribozyme fitness (log ratio) value associated with the variant U61G C85A G143C -3.43

Given U45A A52G C118A , state its recorded polymerase ribozyme fitness (log ratio). -4.18

For U53G , what is its reported polymerase ribozyme fitness (log ratio)? -1.68
